# measuredOn: Neuronal acetylcholine receptor subunit alpha-7 (Rattus norvegicus, UniProt Q05941)
# Sequence (Q05941 whole entry): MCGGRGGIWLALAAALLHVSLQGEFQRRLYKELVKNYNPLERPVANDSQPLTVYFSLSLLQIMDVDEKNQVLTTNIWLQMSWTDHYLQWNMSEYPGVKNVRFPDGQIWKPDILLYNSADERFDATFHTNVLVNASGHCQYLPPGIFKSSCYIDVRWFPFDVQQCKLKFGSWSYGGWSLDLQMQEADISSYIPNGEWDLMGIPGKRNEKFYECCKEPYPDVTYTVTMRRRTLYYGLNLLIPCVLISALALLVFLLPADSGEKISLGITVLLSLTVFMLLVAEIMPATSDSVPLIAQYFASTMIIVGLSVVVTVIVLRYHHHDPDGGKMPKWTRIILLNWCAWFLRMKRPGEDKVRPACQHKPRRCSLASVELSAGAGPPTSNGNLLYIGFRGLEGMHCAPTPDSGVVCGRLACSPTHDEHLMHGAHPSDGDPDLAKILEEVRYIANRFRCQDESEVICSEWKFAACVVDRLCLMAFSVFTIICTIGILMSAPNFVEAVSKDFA
# testName: Binding potency for Nicotinic acetylcholine receptor alpha-7 (rat brain)
experimentalEndpoint: Ki

## Task Can you share its Ki? I mean this compound: Cc1cc([C@@H]2CCCN2C)on1 [ABT-418]
## Result > 10000 nM

## Task Can you share its Ki? I mean this compound: `CO[C@@H]1CC=C2CCN3CCC4=C(CC(=O)OC4)[C@@]23C1`
## Result 148 nM

###

# measuredOn: Neuronal acetylcholine receptor; alpha4/beta2 (Homo sapiens, UniProt P17787+P43681)
# Sequence (P17787 whole entry): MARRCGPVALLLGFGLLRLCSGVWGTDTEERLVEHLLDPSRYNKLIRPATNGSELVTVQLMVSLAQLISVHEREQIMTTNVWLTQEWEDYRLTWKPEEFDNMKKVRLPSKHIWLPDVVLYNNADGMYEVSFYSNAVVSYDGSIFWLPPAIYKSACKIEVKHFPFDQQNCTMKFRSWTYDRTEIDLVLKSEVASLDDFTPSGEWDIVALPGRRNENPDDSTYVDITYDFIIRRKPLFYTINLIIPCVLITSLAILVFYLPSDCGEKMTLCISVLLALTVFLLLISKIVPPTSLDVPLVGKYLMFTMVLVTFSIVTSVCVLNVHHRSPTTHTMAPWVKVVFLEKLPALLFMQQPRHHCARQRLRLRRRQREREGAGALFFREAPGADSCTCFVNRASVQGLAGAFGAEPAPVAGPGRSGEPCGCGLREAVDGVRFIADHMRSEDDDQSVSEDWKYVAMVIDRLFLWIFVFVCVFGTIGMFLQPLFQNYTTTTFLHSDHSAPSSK
# Sequence (P43681 whole entry): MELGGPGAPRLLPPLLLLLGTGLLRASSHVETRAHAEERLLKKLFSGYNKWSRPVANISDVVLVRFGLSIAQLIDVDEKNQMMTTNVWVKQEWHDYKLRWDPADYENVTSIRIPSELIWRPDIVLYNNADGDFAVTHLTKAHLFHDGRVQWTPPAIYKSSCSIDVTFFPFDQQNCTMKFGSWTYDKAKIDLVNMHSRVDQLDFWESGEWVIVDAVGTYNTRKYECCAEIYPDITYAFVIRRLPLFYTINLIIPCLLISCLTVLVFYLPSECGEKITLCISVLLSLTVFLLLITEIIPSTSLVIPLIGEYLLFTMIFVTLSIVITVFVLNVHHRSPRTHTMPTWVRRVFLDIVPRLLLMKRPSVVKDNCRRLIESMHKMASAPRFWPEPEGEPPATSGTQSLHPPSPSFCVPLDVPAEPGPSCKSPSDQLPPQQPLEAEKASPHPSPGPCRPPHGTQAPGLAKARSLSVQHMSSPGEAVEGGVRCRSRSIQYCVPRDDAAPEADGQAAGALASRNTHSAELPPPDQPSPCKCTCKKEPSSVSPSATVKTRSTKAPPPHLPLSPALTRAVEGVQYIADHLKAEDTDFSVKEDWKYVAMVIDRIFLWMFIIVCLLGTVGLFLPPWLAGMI
# testName: Compound was evaluated for functional potencies and efficacies at human Nicotinic acetylcholine receptor alpha4-beta2
# Type: protein-complex assay
Assign EC50 to each entry below.
# unit: µM | format: bare number

## Task Can you share its EC50? I mean this molecule: `C[N+]1(C)CCN(c2ccccc2)CC1`
## Result 2.5

## Task Can you share its EC50? I mean this molecule: `CNCC/C=C/c1cccnc1`
## Result 4.3

## Task Can you share its EC50? I mean this molecule: `O=c1cccc2n1C[C@@H]1CNC[C@H]2C1`
## Result 38

## Task Can you share its EC50? I mean this molecule: `c1cncc(OC[C@@H]2CCN2)c1`
## Result 0.7

FYI, the data here is from ChEMBL document CHEMBL1130264.
